System: Ba/F3-EGFR-insSVD
Assay: Ba/F3 cell survival assay, EGFR-insSVD
Assay type: cell-based
Settings: read-out: BA/F3 (insSVD) IC50; cell viability, Cell Titer-Glo, 48 h, with 10 ng/mL EGF, without IL-3
IC50 reference

COMPOUND | UOM | IC50
COc1c(Cl)cccc1Nc1c(-c2ccncc2OCC2OCC2(C)C)[nH]c2c1C(=O)NCC2 (single isomer, unassigned; (-)) [Example 51] | µM | 0.153
Cc1c(F)cccc1Nc1c(-c2ccncc2OCC2(C)CCO2)[nH]c2c1C(=O)NCC2 (single isomer, unassigned; (+)) [Example 85] | µM | 0.0437
Cc1c(Cl)cc(F)cc1Nc1c(-c2ccncc2OCC2CCO2)[nH]c2c1C(=O)NCC2 (single isomer, unassigned) [Example 42] | µM | 0.0725
